growth inhibition values for the compounds below.
# method_summary: inhibition of 3D7 malaria parasite growth – strain 3D7 (AID 2306);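 further: 0% = DMSO wells and 100% = chloroquine plus artemisinin control wells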
# condition_summary: P. falciparum 3D7 erythrocytic growth, LDH absorbance, 72 h; at 2 µM; hits give high values
The reply should be a number in %, with the unit left off.

Reference set (6 entries):
Task: For CC(=O)Nc1nc(C)c(-c2csc(Nc3ccc(Cl)cc3)n2)s1 , what is its reported growth inhibition?
Output: 96

Task: Another compound: COc1cc2nc(N3CCC(CNC(=O)c4ccc(-c5ccc(-c6noc(C)n6)cc5)cc4)CC3)nc(N)c2cc1OC
Output: 98

Task: Can you check CCOc1cc(Cc2cnc(N)nc2N)cc(OCC)c1OCC next?
Output: 97

Task: Now the compound CCN(Cc1cccc2ccccc12)c1ccc2nc(N)nc(N)c2c1
Output: 100

Task: Param item: CNC(=O)c1ccccc1Nc1nc(Nc2ccc(N3CCN(C)CC3)nc2)ncc1C
Output: 92

Task: Next compound up: CCC(CC)n1cc2c(ccc3nc(N)nc(N)c32)n1
Output: 91

---
Task: Any idea what growth inhibition was measured for COc1ccc(NC(=O)/C=C/c2ccccc2Cl)cc1OCCN1CCC(Cc2cc3ccccc3[nH]2)CC1 ?
Output: 92

Task: Okay, and CCn1c(-c2nc(-c3ccnc(N4CCN(C)CC4)c3)cnc2N)nc2cc(S(C)(=O)=O)ccc21 ?
Output: 101

====

Some molecules, each annotated with its measured red/green cell ratio (normalised).
# method_summary: differential killing of epithelial or mesenchymal cells, primary screen, imaging, PC-3E GFP, TEM4-18 mCherry, co-culture (AID 1345086);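 further: normalised mesenchymal count divided by normalised epithelial count so high means epithelial killing; cells exposed to compound for 72 h before imaging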
# condition_summary: imaging cell counts, at 1 µM, actives lie on both sides, counts scaled to control wells, 1 = unselective
Keep it simple and answer with nothing but the number.

Task: Item under review: Cc1ccc(S[C@H]2OC(CO)C(O)[C@H](O)[C@@H]2N)cc1 (stereo partly drawn) . Reported red/green cell ratio (normalised)?
Output: 0.98

Task: Also, O=C(NCC1O[C@@H](OC2C(NC(=O)c3ccccc3)C[C@@H](NC(=O)c3ccccc3)[C@H](OC3OC(COS(=O)(=O)O)[C@@H](OS(=O)(=O)O)[C@H](NC(=O)c4ccccc4)[C@H]3OS(=O)(=O)O)[C@H]2OS(=O)(=O)O)[C@H](OS(=O)(=O)O)[C@@H](OS(=O)(=O)O)C1OS(=O)(=O)O)c1ccccc1 (stereo partly drawn) please.
Output: 1.21

Task: Record: OC[C@@H](O)C(O[C@@H]1O[C@H](CO)[C@H](O)[C@H](O)[C@H]1O)[C@H](O)[C@@H](O)CO (stereo partly drawn)
Output: 1.21

Task: Another molecule to look at: C[C@@H]1CC[C@H]2[C@@H](C)C(O)O[C@@H]3O[C@]4(C)CC[C@@H]1[C@]32OO4 (stereo partly drawn)
Output: 0.74

Task: Queued: COc1ccc2oc(-c3ccccc3)c(OC)c(=O)c2c1
Output: 0.79

***
Task: Name the recorded red/green cell ratio (normalised) for CC(C)(C)[Si](C)(C)OCC1O[C@H](Sc2ccccc2)[C@H]2NC(=O)O[C@H]2C1O (stereo partly drawn) .
Output: 1.07

Task: And what about the molecule c1ccc(SCC2CCCNC2)cc1 (stereo not drawn) ?
Output: 0.86

Task: Also need O=c1[nH]cnc2c1ncn2C1O[C@H](CO)[C@@H](O)[C@H]1O (stereo partly drawn) , thanks.
Output: 1.22
